Test system: MDR1 (P-gp)
test.name: in vitro
test.settings: dog, MDCK-MDR1, pH 7.4
Documented Papp A→B at 120 min, 5 μM across a set of molecules

{"molecule": "Cc1nc2cc(-c3ccc(N(C)[C@@H]4C[C@H]5CC[C@@H]([C@@H]4F)N5C)nn3)c(O)cc2c(=O)n1CC(F)(F)F (single isomer, unassigned) [Compound 130A]", "quantity.unit": "×10⁻⁶ cm/s", "lt.gt.eq": "=", "Papp A→B at 120 min, 5 μM": 0.67}
{"molecule": "CN1[C@H]2CC[C@@H]1[C@@H](F)[C@@H](N(c1ccc(-c3cc4oc(C(=O)N5CCC5)cc4cc3O)nn1)C1CC1)C2 (single isomer, unassigned) [Compound 92B]", "quantity.unit": "×10⁻⁶ cm/s", "lt.gt.eq": "=", "Papp A→B at 120 min, 5 μM": 1.16}
{"molecule": "CN(C)C(=O)c1cc2cc(O)c(-c3ccc(N(C)[C@@H]4C[C@H]5CC[C@@H]([C@@H]4F)N5C)nn3)cc2o1 (single isomer, unassigned) [Compound 106A]", "quantity.unit": "×10⁻⁶ cm/s", "lt.gt.eq": "=", "Papp A→B at 120 min, 5 μM": 1.87}
{"molecule": "CN(c1ccc(-c2ccc(Oc3nccn3C)cc2O)nn1)[C@@H]1C[C@H]2CC[C@H](N2)[C@@H]1F (single isomer, unassigned) [Compound 123A]", "quantity.unit": "×10⁻⁶ cm/s", "lt.gt.eq": "=", "Papp A→B at 120 min, 5 μM": 0.76}
{"molecule": "CN(c1ccc(-c2cn3c(=O)ccnc3cc2O)nn1)[C@H]1C[C@@H]2CC[C@@H](N2)[C@H]1F (single isomer, unassigned) [Compound 82B]", "quantity.unit": "×10⁻⁶ cm/s", "lt.gt.eq": "<", "Papp A→B at 120 min, 5 μM": 0.21}
{"molecule": "CN(c1ccc(-c2ccc(Oc3cnn(C)c3)cc2O)nn1)[C@@H]1C[C@H]2CC[C@H](N2)[C@@H]1F (single isomer, unassigned) [Compound 91A]", "quantity.unit": "×10⁻⁶ cm/s", "lt.gt.eq": "=", "Papp A→B at 120 min, 5 μM": 4.19}
{"molecule": "CN(C)C(=O)c1cc2cc(O)c(-c3ccc(N(C4CC4)[C@@H]4C[C@H]5CC[C@H](N5)[C@@H]4F)nn3)cc2o1 [Compound 86A]", "quantity.unit": "×10⁻⁶ cm/s", "lt.gt.eq": "=", "Papp A→B at 120 min, 5 μM": 1.05}
{"molecule": "CN(c1ccc(-c2cc3ncn(CC(F)(F)F)c(=O)c3cc2O)nn1)[C@H]1C[C@@H]2CC(F)(F)[C@H](C1)N2 [Compound 59B]", "quantity.unit": "×10⁻⁶ cm/s", "lt.gt.eq": "=", "Papp A→B at 120 min, 5 μM": 2.97}
{"molecule": "CN(C)C(=O)c1cc(O)c(-c2ccc(N(C)[C@H]3C[C@@H]4CC[C@@H](N4)[C@H]3F)nn2)cc1F (single isomer, unassigned) [Compound 53B]", "quantity.unit": "×10⁻⁶ cm/s", "lt.gt.eq": "=", "Papp A→B at 120 min, 5 μM": 0.27}
{"molecule": "CN(c1ccc(-c2cc3ncn(CC(F)(F)F)c(=O)c3cc2O)nn1)[C@@H]1C[C@H]2CC[C@@H]([C@@H]1F)N2C (single isomer, unassigned) [Compound 108A]", "quantity.unit": "×10⁻⁶ cm/s", "lt.gt.eq": "=", "Papp A→B at 120 min, 5 μM": 1.51}
